TARGET SYSTEM: E. coli RNase III (Escherichia coli)
Sequence (P0A7Y0 whole entry): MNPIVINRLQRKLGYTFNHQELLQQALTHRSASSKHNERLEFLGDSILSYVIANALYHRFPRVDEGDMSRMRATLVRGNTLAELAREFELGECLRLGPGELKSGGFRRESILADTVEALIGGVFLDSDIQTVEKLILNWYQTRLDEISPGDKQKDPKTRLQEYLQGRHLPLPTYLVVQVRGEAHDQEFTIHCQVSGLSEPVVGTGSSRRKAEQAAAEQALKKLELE
MEASURED QUANTITY: IC50

In [3]: df
Out[3]:
                                   compound                         target_system  measured_quantity         result
0  Cc1cc(/C=C(/C#N)C(=O)Nc2cccc(Br)c2)c(C)n1-c1ccc(C(=O)O)cc1 [RNPA1000]  E. coli RNase III (Escherichia coli)               IC50  500 to 750 µM
